For each of the binders below, state its log10(Kd).
molecular target: soluble gp41 MPER peptide RRR-(656-683)-RRR; assay: kinetic binding (ka/kd)
Values reflect log10 of reported Kd (µM).

// log10(Kd) lookup, key: S100cA (heavy chain) (antibody, V domains shown) VH: EVQLVESGGGLVKPGGSLRLSCSASGFDFDNAWMTWVRQPPGKGLEWVGRITGPGEGWSVDYAAPVEGRFTISRLNSINFLYLEMNNLRMEDSGLYFCARTGKYYDFWAGYPPGEEYFQDWGRGTLVTVSS VL: SYELTQETGVSVALGRTVTITCRGDSLRSHYASWYQKKPGQAPILLFYGKNNRPSGVPDRFSGSASGNRASLTISGAQAEDDAEYYCSSRDKSGSRLSVFGGGTKLTVL -2.02

// log10(Kd) lookup, key: R95bA (light chain) (antibody, V domains shown) VH: EVQLVESGGGLVKPGGSLRLSCSASGFDFDNAWMTWVRQPPGKGLEWVGRITGPGEGWSVDYAAPVEGRFTISRLNSINFLYLEMNNLRMEDSGLYFCARTGKYYDFWSGYPPGEEYFQDWGRGTLVTVSS VL: SYELTQETGVSVALGRTVTITCRGDSLRSHYASWYQKKPGQAPILLFYGKNNRPSGVPDRFSGSASGNRASLTISGAQAEDDAEYYCSSRDKSGSALSVFGGGTKLTVL -1.54

// log10(Kd) lookup, key: P100fA (heavy chain) (antibody, V domains shown) VH: EVQLVESGGGLVKPGGSLRLSCSASGFDFDNAWMTWVRQPPGKGLEWVGRITGPGEGWSVDYAAPVEGRFTISRLNSINFLYLEMNNLRMEDSGLYFCARTGKYYDFWSGYAPGEEYFQDWGRGTLVTVSS VL: SYELTQETGVSVALGRTVTITCRGDSLRSHYASWYQKKPGQAPILLFYGKNNRPSGVPDRFSGSASGNRASLTISGAQAEDDAEYYCSSRDKSGSRLSVFGGGTKLTVL -0.12

// log10(Kd) lookup, key: D30A (heavy chain) (antibody, V domains shown) VH: EVQLVESGGGLVKPGGSLRLSCSASGFDFANAWMTWVRQPPGKGLEWVGRITGPGEGWSVDYAAPVEGRFTISRLNSINFLYLEMNNLRMEDSGLYFCARTGKYYDFWSGYPPGEEYFQDWGRGTLVTVSS VL: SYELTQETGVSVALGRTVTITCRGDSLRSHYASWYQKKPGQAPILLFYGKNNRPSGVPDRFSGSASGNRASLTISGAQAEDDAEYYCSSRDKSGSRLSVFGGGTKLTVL -1.93

// log10(Kd) lookup, key: G100dA (heavy chain) (antibody, V domains shown) VH: EVQLVESGGGLVKPGGSLRLSCSASGFDFDNAWMTWVRQPPGKGLEWVGRITGPGEGWSVDYAAPVEGRFTISRLNSINFLYLEMNNLRMEDSGLYFCARTGKYYDFWSAYPPGEEYFQDWGRGTLVTVSS VL: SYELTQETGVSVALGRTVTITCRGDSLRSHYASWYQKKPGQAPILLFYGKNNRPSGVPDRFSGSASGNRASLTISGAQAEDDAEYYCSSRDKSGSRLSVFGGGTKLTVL -0.50
